experimental_protocol: acute toxicity (LD50), rat i.p.
particulars: in vivo, ip
readout_name: LD50 (mg/kg)
Give the value in mg/kg but do not write mg/kg after it.

Lookup: Dear colleague, I am looking for the recorded LD50 of the following molecule: "CN(C)CCN1CCN(c2cccc(Cl)c2)C1=O"
Found: 200

Lookup: Note, next up: "CN(C)CCCN1c2ccccc2Sc2ccc(Cl)cc21"
Found: 120

Lookup: Repeat for the following molecule: "CC1(C)CN(CCN2CCN(c3cccc(Cl)c3)C2=O)C1"
Found: 200

Reference source: patent US4011238A
